The reported numbers originate from patent US6448256B1.

Assay: Prodrug conversion in mouse plasma in vitro (HPLC)
Assay type: in vitro ADME
Conditions: 80% mouse plasma, 37° C. (FIG. 2); read-out: prodrug half-life
reported endpoint: half-life (min)
Field format: number, assumed min, no unit text.

Query :: Quick one: give measured half-life for CCc1cc(Nc2cc(=O)n(CCCCOC(=O)[C@@H](N)C(C)C)c(=O)[nH]2)ccc1C
Result :: 37.8

* * *

Test: Plasma pharmacokinetics after intravenous administration to mice
Assay type: in vivo
Settings: mouse, plasma, iv, 25 mg/kg, after iv Val-B-EMAU (4a) 25 mg/Kg (FIG. 3), average of four measurements, read-out: elimination half-life of HB-EMAU
reported endpoint: half-life (min)
Field format: number, assumed min, no unit text.

Query :: Quick one: give measured half-life for CCc1cc(Nc2cc(=O)n(CCCCO)c(=O)[nH]2)ccc1C
Result :: 15.6

* * *

Test system: vancomycin-resistant E. fecalis
Assay: MIC against vancomycin-resistant E. fecalis (VREF)
Format: cell-based
Conditions: Table 5, vancomycin-resistant E. fecalis
For each of the compounds below, state its log10 MIC.
Kindly note that the scale is log10 and the underlying MIC is in µg/mL.

Query :: Look up and report measured log10 MIC (vancomycin-resistant E. fecalis) for the following compound: CCc1cc(Nc2cc(=O)n(CCOC)c(=O)[nH]2)ccc1C [ME-EMAU]
Result :: 0.79

Query :: Look up and report measured log10 MIC (vancomycin-resistant E. fecalis) for the following compound: CCc1cc(Nc2cc(=O)n(CCCOC)c(=O)[nH]2)ccc1C [MP-EMAU]
Result :: 0.28

Query :: Look up and report measured log10 MIC (vancomycin-resistant E. fecalis) for the following compound: CCc1cc(Nc2cc(=O)[nH]c(=O)[nH]2)ccc1C [EMAU, 6-(3-ethyl-4-methylanilino)uracil, reference compound]
Result :: 1.40

Query :: Look up and report measured log10 MIC (vancomycin-resistant E. fecalis) for the following compound: CCc1cc(Nc2cc(=O)n(CCO)c(=O)[nH]2)ccc1C [HE-EMAU]
Result :: 0.94

Query :: Look up and report measured log10 MIC (vancomycin-resistant E. fecalis) for the following compound: CCc1cc(Nc2cc(=O)n(CCCO)c(=O)[nH]2)ccc1C [HP-EMAU]
Result :: 0.61

* * *

Experiment: Plasma pharmacokinetics after intravenous administration to mice
Assay type: in vivo
Conditions: mouse, plasma, intravenous, 25 mg/kg, tail vein, 25 mg/kg in saline (FIG. 1), read-out: half life of Val-B-EMAU in plasma
reported endpoint: half-life (min)
Field format: number, assumed min, no unit text.

Query :: Quick one: give measured half-life for CCc1cc(Nc2cc(=O)n(CCCCOC(=O)[C@@H](N)C(C)C)c(=O)[nH]2)ccc1C
Result :: 34

* * *

Test: Prodrug stability in physiological saline
Type: physicochemical
Settings: b125, read-out: half-life in physiological saline
reported endpoint: half-life

Query :: Quick one: give measured half-life for CCc1cc(Nc2cc(=O)n(CCCCOC(=O)[C@@H](N)C(C)C)c(=O)[nH]2)ccc1C
Result :: 18.8 to 20.8 days

* * *

For each of the molecules below, state its MIC B. subtilis.
Test system: B. subtilis
Assay: MIC against B. subtilis
Assay type: cell-based
Details: Table 2
Field format: number, assumed μ/ml, no unit text.

Query :: Look up and report measured MIC B. subtilis (B. subtilis) for the following molecule: CCc1cc(Nc2cc(=O)n(CCCCOC(=O)C(CO)NC(=O)OC(C)(C)C)c(=O)[nH]2)ccc1C (stereo not drawn) [(CH2)4-OCOCH(CH2OH)NH-Boc]
Result :: 5

Query :: Look up and report measured MIC B. subtilis (B. subtilis) for the following molecule: CCc1cc(Nc2cc(=O)n(CCCCOC(=O)C(N)CO)c(=O)[nH]2)ccc1C.Cl (stereo not drawn) [(CH2)4-OCOCH(CH2OH)NH3^+Cl^−]
Result :: 10

Query :: Look up and report measured MIC B. subtilis (B. subtilis) for the following molecule: CCc1cc(Nc2cc(=O)n(CCCCOC(=O)C(NC(=O)OC(C)(C)C)C(C)C)c(=O)[nH]2)ccc1C (stereo not drawn) [(CH2)4-OCOCH(iPr)NH-Boc]
Result :: 2.5
